assay: Apparent pKa of LNP formulations, TNS fluorescence assay; format: physicochemical; conditions: LNP cationic lipid/DSPC/cholesterol/DMG-PEG 50/10/38.5/1.5 mol %
MEASURED PROPERTY: Apparent Pka
No unit in the answer, please; the number alone is enough.

{"columns": ["COMPOUND", "MEASURED PROPERTY", "RESULT NUMBER"],
 "data": [
  ["CCCCCCCCC(CCCCCC)CNC(=O)CCCCCN(CCO)CCN(CCCCC(COC(=O)CCCCCCC)COC(=O)CCCCCCC)C1CC1 (stereo not shown)", "Apparent Pka", 6.28],
  ["CCCCCCCCC(CCCCCCCC)COC(=O)CCCCCN(C)CCN(CCCCCC(=O)OCC(CCCCCCCC)CCCCCCCC)C1CCC(O)CC1 (stereo not shown)", "Apparent Pka", 6.579]
]}

Consider the compound shown here: CCCCCCCCCCCOC(=O)CCCCCN(CCN(CCO)CCCCCC(=O)OCC(CCCCCC)CCCCCCCC)C1CC1 (stereo not shown) What is its recorded Apparent Pka?
6.32

Consider the compound shown here: CCCCCCCCC(CCCCCCCC)COC(=O)CCCCCN(CCO)CCN(CCCCCC(=O)OCC(CCCCCCCC)CCCCCCCC)C1CCOCC1 What is its recorded Apparent Pka?
6.686

* * *

assay: Encapsulation efficiency of lipid nanoparticles, Quant-it Ribogreen RNA assay; type: physicochemical; settings: LNP of lipid/DSPC/cholesterol/PEG-lipid 50:10:38.5:1.5 encapsulating hEPO mRNA
Some compounds, each annotated with its measured Encapsulation Efficiency.
State the answer as a number, implicitly in %.

Sample records with Encapsulation Efficiency:
{"columns": ["COMPOUND", "Encapsulation Efficiency [%]"],
 "data": [
  ["CCCCCCCCC(CCCCCCCC)COC(=O)CCCCCN(CCC)CCN(CCO)CCCCCC(=O)OCC(CCCCCCCC)CCCCCCCC [Compound 32]", 92.1],
  ["CCCCCCCCC(CCCCCC)CNC(=O)CCCCCN(CCOCCO)CCN(CCCCC(COC(=O)CCCCCCC)COC(=O)CCCCCCC)C1CCCCCC1 (stereo not drawn) [Compound 207]", 87.94],
  ["CCCCCCCCC(CCCCCC)COC(=O)CCCCCN(CC=C(C)C)CCN(CCO)CCCCC1COC(C(CCCCCC)CCCCCCCC)OC1 (stereo not drawn) [Compound 151]", 92.43],
  ["CCCCCCCCC(CCCCCCCC)CC(=O)NCCCCCN(CCO)CCN(CCCCCNC(=O)CC(CCCCCCCC)CCCCCCCC)C1CCC1 [Compound 60]", 91.7]
]}

Consider the compound shown here: CCCCCCCCC(CCCCCCCC)COC(=O)CCCCCN(CCO)Cc1ccc(CN(CCCCCC(=O)OCC(CCCCCCCC)CCCCCCCC)C2CCC2)cc1 [Compound 88] What is its recorded Encapsulation Efficiency?
92.56

Consider the compound shown here: CCCCCCCCC(CCCCCC)CNC(=O)CCCCCCCN(CCO)CCN(CCCCC(COC(=O)CCCCCCC)COC(=O)CCCCCCC)C1CCCCC1 (stereo not drawn) [Compound 235] What is its recorded Encapsulation Efficiency?
88.53

* * *

assay: Lipid nanoparticle size and polydispersity by dynamic light scattering; assay type: physicochemical; conditions: LNP of lipid/DSPC/cholesterol/PEG-lipid 50:10:38.5:1.5 encapsulating hEPO mRNA
MEASURED PROPERTY: size (nm)
State the answer as a number, implicitly in nm.

Sample records with size (nm):
{"columns": ["COMPOUND", "size (nm)"],
 "data": [
  ["CCCCCCCCC(CCCCCCCC)COC(=O)CCCCCN(CCO)CCN(CCCCCC(=O)OCC(CCCCCCCC)CCCCCCCC)CCC(C)C", 57.96],
  ["CCCCCCCCC(CCCCCC)COC(=O)CCCCCN(CCCCN(CCO)CCCCC(COC(=O)CCCCCCC)COC(=O)CCCCCCC)C1CCCCC1 (stereo not drawn)", 82.66],
  ["CCCCCCCCC(CCCCCCCC)COC(=O)CCCCCN(CCN(CCO)CCOCCC(=O)OCC(CCCCCCCC)CCCCCCCC)C1CCC1", 84.07]
]}

Consider the compound shown here: CCCCCCCCC(CCCCCC)CNC(=O)CCCCCN(C)CCN(CCO)CCCCC(COC(=O)CCCCCCC)COC(=O)CCCCCCC (stereo not drawn) What is its recorded size (nm)?
63.54

Consider the compound shown here: CCCCCCCCC(CCCCCC)CNC(=O)CCCCCCCN(CCO)CCN(CCCCC(COC(=O)CCCCCCC)COC(=O)CCCCCCC)C1CCCCC1 (stereo not drawn) What is its recorded size (nm)?
67.92

Consider the compound shown here: CCCCCCCCC(CCCCCCCC)COC(=O)CCCCCN(CCCCN(CCO)CCCCC(COC(=O)CCCCCCC)COC(=O)CCCCCCC)C1CCC1 What is its recorded size (nm)?
94.56

* * *

test: Lipid nanoparticle size and polydispersity by dynamic light scattering; assay type: physicochemical; settings: LNP of lipid/DSPC/cholesterol/PEG-lipid 50:10:38.5:1.5 encapsulating hEPO mRNA
MEASURED PROPERTY: size (nm)
Show the value, then the unit it is measured in.

Sample records with size (nm):
{"columns": ["COMPOUND", "RESULT"],
 "data": [
  ["CCCCCCCCCCCOC(=O)CCCCCN(CCN(CCO)CCCCCC(=O)OCC(CCCCCC)CCCCCCCC)C1CCC1 (stereo not drawn) [Compound 4]", "90.8 nm"],
  ["CCCCCCCCCCCOC(=O)CCOCCN(CCN(CCO)CCOCCC(=O)OCC(CCCCCCCC)CCCCCCCC)C1CCC1 [Compound 116]", "77.45 nm"],
  ["CCCCCCCCCCCC(=O)OCCCCCN(CCN(CCO)CCOCCOC(=O)CC(CCCCCCCC)CCCCCCCC)C1CCCCC1 [Compound 98]", "91.85 nm"],
  ["CCCCCCCCC(CCCCCCCC)CNC(=O)CCCCCN(CCO)CCN(CCCCCC(=O)NCC(CCCCCCCC)CCCCCCCC)C1CCCC1 [Compound 12]", "58.17 nm"],
  ["CCCCCCCCC(CCCCCC)COC(=O)CCCCCN(CCO)CCN(CCCCC(COC(=O)CCCCCCC)COC(=O)CCCCCCC)C1CC1 (stereo not drawn) [Compound 154]", "56.95 nm"]
]}

Consider the compound shown here: CCCCCCCCC(CCCCCCCC)COC(=O)CCCCCN(CCO)CCN(CCCCCC(=O)OCC(CCCCCCCC)CCCCCCCC)C1CCOCC1 [Compound 28] What is its recorded size (nm)?
62.35 nm

Consider the compound shown here: CCCCCCCCC(CCCCCC)COC(=O)CCCCCN(CCO)CCN(CCCCCC(=O)OCC(CCCCCC)CCCCCCCC)C1CCCC1 (stereo not drawn) [Compound 8] What is its recorded size (nm)?
65.15 nm

Consider the compound shown here: CCCCCCCCC(CCCCCC)CNC(=O)CCCCCN(CCO)CCN(CCCCC(COC(=O)CCCCCCC)COC(=O)CCCCCCC)C1CCC1 (stereo not drawn) [Compound 136] What is its recorded size (nm)?
84.74 nm

* * *

Some compounds, each annotated with its measured size (nm).
assay: Lipid nanoparticle size and polydispersity by dynamic light scattering; assay type: physicochemical; details: LNP of lipid/DSPC/cholesterol/PEG-lipid 50:10:38.5:1.5 encapsulating hEPO mRNA
State the answer as a number, implicitly in nm.

{"columns": ["COMPOUND", "size (nm)"],
 "data": [
  ["CCCCCCCC(=O)OCC(CCCCN(CCC)CCCCN(CCO)CCCCC(COC(=O)CCCCCCC)COC(=O)CCCCCCC)COC(=O)CCCCCCC", 129.75]
]}

Consider the compound shown here: CCCCCCCCC(CCCCCCCC)CNC(=O)CCCCCN(CC=C(C)C)CCN(CCO)CCCCCC(=O)OCC(CCCCCCCC)CCCCCCCC What is its recorded size (nm)?
70.01

Consider the compound shown here: CCCCCCCCCCCCCCCCC(CN(CCO)CCN(CC(CCCCCCCCCCCCCCCC)OCCCCCCCC)C1CCC1)OCCCCCCCC (stereo not shown) What is its recorded size (nm)?
50.59

Consider the compound shown here: CCCCCCCCC(CCCCCCCC)CC(=O)OCCCCCN(CCO)CCN(CCCCCOC(=O)CC(CCCCCCCC)CCCCCCCC)C1CCC1 What is its recorded size (nm)?
68.28

* * *

assay: Lipid nanoparticle size and polydispersity by dynamic light scattering; assay type: physicochemical; conditions: LNP of lipid/DSPC/cholesterol/PEG-lipid 50:10:38.5:1.5 encapsulating hEPO mRNA
MEASURED PROPERTY: size (nm)
State the answer as a number, implicitly in nm.

Consider the compound shown here: CCCCCCCCCCCNC(=O)CCCCCN(CCN(CCO)CCCCC(COC(=O)CCCCCCC)COC(=O)CCCCCCC)C1CCC1 What is its recorded size (nm)?
111.8

Consider the compound shown here: CCCCCCCCC(CCCCCC)CNC(=O)CCCCCN(CCCCN(CCO)CCCCC(COC(=O)CCCCCCC)COC(=O)CCCCCCC)C1CC1 (stereo not shown) What is its recorded size (nm)?
104.2

Consider the compound shown here: CCCCCCCCC(CCCCCCCC)COC(=O)CCOCCN(CCO)CCN(CCOCCC(=O)OCC(CCCCCCCC)CCCCCCCC)C1CCC1 What is its recorded size (nm)?
77.33

Consider the compound shown here: CCCCCCCCC(CCCCCC)CNC(=O)CCCCCCN(CCO)CCN(CCCCC(COC(=O)CCCCCCC)COC(=O)CCCCCCC)C1CCCCCC1 (stereo not shown) What is its recorded size (nm)?
77.78

Consider the compound shown here: CCCCCCCCCCCC(=O)OCCCCCN(CCN(CCO)CCCCCOC(=O)CC(CCCCCCCC)CCCCCCCC)C1CCCCC1 What is its recorded size (nm)?
79.95

Consider the compound shown here: CCCCCCCCCCCOC(=O)CCCCCN(CCN(CCO)CCOCCC(=O)OCC(CCCCCCCC)CCCCCCCC)C1CCCCC1 What is its recorded size (nm)?
97.51

Consider the compound shown here: CCCCCCCCC(CCCCCCCC)COC(=O)OCCCCCN(CCO)CCN(CCCCCNC(=O)CC(CCCCCC)CCCCCCCC)C1CCCCCC1 (stereo not shown) What is its recorded size (nm)?
73.95

Consider the compound shown here: CCCCCCCCC(CCCCCCCC)COC(=O)CCCCCN(CCO)CCN(CCCCCOC(=O)N(CCCCCCCC)CCCCCCCC)C1CCCCC1 What is its recorded size (nm)?
69.05

Consider the compound shown here: CCCCCCCCCCCOC(=O)CCCCCN(CC=C(C)C)CCN(CCCCCC(=O)OCC(CCCCCCCC)CCCCCCCC)C1CCC(O)CC1 (stereo not shown) What is its recorded size (nm)?
90.98

Consider the compound shown here: CCCCCCCCCCCCC(O)CN(CCCCCC(=O)OCC(CCCCCC)CCCCCCCC)CCN(CCCCCC(=O)OCCCCCCCCCCC)C1CCC1 (stereo not shown) What is its recorded size (nm)?
64.03

Reference source: patent US20230348362A1
